Target: T1, recombinant human CLL1 extracellular domain, His-tagged (CLL1-His protein) (human, UniProt Q5QGZ9 65-265)
T1 construct: ECD made by transient expression in HEK293 (293-F) cells and purified by IMAC; also called recombinant human CLL1 protein; ECD of CLL1; not shown: His tag (protein called CLL1-His, purified by IMAC)
T1 sequence: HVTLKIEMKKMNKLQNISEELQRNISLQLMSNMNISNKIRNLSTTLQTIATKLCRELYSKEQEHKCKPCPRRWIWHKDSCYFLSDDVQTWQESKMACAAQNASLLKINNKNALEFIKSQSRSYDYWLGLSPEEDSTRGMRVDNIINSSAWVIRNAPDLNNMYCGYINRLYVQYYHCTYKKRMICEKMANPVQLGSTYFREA
Assay: SPR (BIACORE T200), IgG1 on recombinant human CLL1; column KD, unit inferred
measure name: pKd
Give bare numbers, as −log10 of the molar value.

Worked examples, 2 binders total:
AS141297 (antibody, V domains shown, Called 'IgG1', from a camel phage library, expressed in IPTG-induced supernatant with a C-terminal His-tag; also called anti-CLL1 IgG1) VH: QVQLVQSGGGLVQPGGSLRLSCAASGFTFSSYGMIWVRQAPGKGLEWVSAANSGGGTTYYADSVKGRFTISRDNAKNTLYLQLNSLKTEDTAMYYCVKDLYIDGGTWSGLGLYLEVWGQGTLVTVSS VL: SYELTQPSAVSVSLGETARITCQGGDFGTYYASWYQQKPGQAPVLVIYEDSERPSGIPERFSGSSSGGTATLTISGAQAEDEADYYCQSADSSVNVVFGGGTHLTVL
9.27
AS141641 (antibody, V domains shown, Called 'IgG1', from a camel phage library, expressed in IPTG-induced supernatant with a C-terminal His-tag; also called anti-CLL1 IgG1) VH: AVQLVESGGGLVQPGGSLRLSCAASGFTFSGYPMSWVRQAPGKALEWVSTINNGGGSTYYADSVKGRFTISRDNAKNTLYLQLNSLKTEDTAMYYCAKRHIPSSYCSDGYCYAAGEDYGMDYWGKGTLVTISS VL: SSELTQPSAVSVSLGETARITCQGGNVGSSYASWYQQKPGQAPVLVIYEDSERPSGIPERFSGSSSGGTATLTISGAQAEDEADYYCQSADSSGYNAVFGGGTHLTVL
9.55

Read the next record carefully.
# pKd (binder: AS138628 (antibody, V domains shown, Called 'IgG1', from a camel phage library, expressed in IPTG-induced supernatant with a C-terminal His-tag; also called anti-CLL1 IgG1) VH: QVQLVQSGGGLVQPGGSLRLSCASSGFTFSSYTMSWVRQAPGKGLEWVSGFNSYGSTYYADSVKGRFTISRDNAKNTLYLQLNSLKTEDTAMYYCARGLVDFDYWGQGTQVTVSS VL: QSVLTQPSSVSGTPGQTVTISCTGTSNDVGGYNYVSWYQQLPGTAPKLLIYQVNKRASGIPDRFSGSKSGNTASMTISGLQSADEADYYCASYRSTGNAVFGGGTHLTVL ) is 7.37
